Protocol Description: qHTS RealTime-Glo MT Cell Viability Assay in HEK293 cells - 40 hour (AID 1224874); further: on the % scale 0 is the no-effect control and ±100 the full control effect; nearly all actives have a fitted effect of over 50% in size
Run Conditions: RealTime-Glo luminescence; stronger effect = lower value
Records with an inconclusive call do not appear. The source made the active and inactive calls. The call rests on the fitted dose curve; in most records, active means well fitted cell-killing curve with a large enough effect in the repeat runs; inconclusive means weak or mixed curves, or effect the other way; inactive means flat fitted curve, though single readings scatter.
# reported max response; entries follow

| Compound | max response |
| --- | --- |
| C=C(C)C(=O)OCCOCCOC(=O)C(=C)C | 1.33% (inactive) |
| CC(C)=CCC1C(=O)N(c2ccccc2)N(c2ccccc2)C1=O | 4.23% (inactive) |
| C/C=C/C=C/C=O | 10.8% (inactive) |
| CN1CC(=O)N2[C@H](c3ccc4c(c3)OCO4)c3[nH]c4ccccc4c3C[C@@H]2C1=O | -16.3% (inactive) |
| CC1(C)S[C@@H]2[C@H](NC(=O)C(c3ccccc3)S(=O)(=O)O)C(=O)N2[C@H]1C(=O)O (stereo partly drawn) | 0.0341% (inactive) |
| C[C@H]1c2cccc(O)c2C(O)=C2C(=O)[C@]3(O)C(O)=C(C(N)=O)C(=O)[C@@H](N(C)C)[C@@H]3[C@@H](O)[C@@H]21 | 0.751% (inactive) |
| CCC(OCCCOC)OC(C)=O (stereo not drawn) | 3.03% (inactive) |
| CCC1(CO)COCOC1 | -7.69% (inactive) |
| COC(=O)CCS | 21.6% (inactive) |
| CC(=O)Nc1ccc(C)cc1C | -0.695% (inactive) |
| CC(=O)OCC(=O)NCCCOc1cccc(CN2CCCCC2)c1 | 1.71% (inactive) |
| C[C@@]12CCC[C@H]1[C@@H]1CC[C@H]3C[C@@H](O)CC[C@]3(C)[C@H]1CC2 | 5.8% (inactive) |
| CCCCC(CC)CN (stereo not drawn) | 4.35% (inactive) |
